B1: Hairpin Ribozyme (parent)
chain: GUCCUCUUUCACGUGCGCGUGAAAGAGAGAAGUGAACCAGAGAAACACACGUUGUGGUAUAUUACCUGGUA

- Variants of: B1
- TEST DETAILS: self-cleavage, relative activity (ratio to wild type); higher = more cleavage; co-transcriptional
Parameter: self-cleavage. Scope: all listed entries.

MUTATION	self-cleavage
A28U	0.656
G32C A45C	0.145
A11C G57U	0.323
A31G A64C	0.0777
C4G G29C	0.0848

Source listed as the RNAGym collection of RNA variant scans (doi:10.7554/elife.80360).
